ASSAY COMMENT: modulators of CIT2-GFP expression in yeast, confirmation, S. cerevisiae, GFP fusion, cherry picks, mother/daughter gates (AID 2274)
PARTICULARS: S. cerevisiae CIT2-GFP strain, flow cytometry, 3 h; measured here: mother cell gate; at 10 µM; stronger effect = higher value
PARAMETER MEASURED: GFP response, % of DMSO (%)
Answers are plain numbers, in %.

Some solved entries appear below for comparison.
{"MOLECULE": "COc1ccc(COC(=O)c2n[nH]c3ccccc23)cc1F", "GFP response, % of DMSO [%]": 104}
{"MOLECULE": "COc1ccc(N2CCN(C(=O)c3ccc(Br)cc3)CC2)c([N+](=O)[O-])c1", "GFP response, % of DMSO [%]": 90.8}
{"MOLECULE": "COc1cc(/C=C/c2ccc3c(Br)cc(Br)c(O)c3n2)ccc1O", "GFP response, % of DMSO [%]": 89.8}
{"MOLECULE": "COc1ccccc1-c1noc(-c2cc(OC)c(OC)c(OC)c2)n1", "GFP response, % of DMSO [%]": 98.7}

Next, consider the following molecule.
Return reported GFP response, % of DMSO; argument: Cc1ccc(N(C(=O)CNC(=O)c2ccco2)C(C(=O)NC2CCCC2)c2cccnc2)cc1C (stereo not given) 102
